The measured values listed here are drawn from paper PMC5389482.

- Test system: ParF (plasmid TP228 (segregation module))
- ASSAY OVERVIEW: fluorescence polarization
- CONDITION DETAILS: 5 mM ATP, 5 mM Mg acetate, 150 mM K glutamate; 150 mM potassium glutamate (50-350 mM in salt series), pH 7.5, 5 mM magnesium acetate, 5 mM ATP or ADP, 25 C, 1 nM DNA
VALUE TYPE: pKd
Please keep in mind that pKd is minus log10 of the molar concentration; only the number is needed.

Query block: Could you tell me which pKd is on file for AATTACTCAATTACTCAATT (double strand) [20-mer] ?
Result block: 6.81
